# System: 855422-203-R-J1-PDC complex spheroid viability;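 further: spheroids exposed to compounds for seven days before readout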
# assay remarks: Anticancer human tumor 855422-203-R-J1-PDC patient-derived bladder carcinoma cell line growth inhibition [POLQ]
# test context: second compound 1 µM; first compound 0.0316 µM; hits give low values
# viability, T/C per record follows

// below: answered compounds
INSERT INTO results (compound, experimental_value) VALUES
  ('CC[C@@]1(O)C(=O)OCc2c1cc1n(c2=O)Cc2cc3c(CN(C)C)c(O)ccc3nc2-1 + Nc1ccc(C#CCN(C(=O)Cc2ncc(C(F)(F)F)cc2C(F)(F)F)c2ccc(F)cc2)nn1', '83%'),
  ('COc1cccc(OCCCN)c1-c1cc(Nc2cnc(C#N)cn2)n[nH]1 + COC1C(OC(N)=O)C(O)C(Oc2ccc3c(O)c(NC(=O)c4ccc(O)c(CC=C(C)C)c4)c(=O)oc3c2C)OC1(C)C', '13.6%');

Switching to the query record.
viability, T/C reading for CCc1c2c(nc3ccc(O)cc13)-c1cc3c(c(=O)n1C2)COC(=O)[C@]3(O)CC + Cc1cccc(N(C)C(=O)C2C(O)CCN2c2nc(C)cc(C(F)(F)F)c2C#N)c1 : 8.04%
